# Tested on: M14
# test: NCI-60 SRB screen
# Type: cell-based, human
# conditionDescription: Homo sapiens; M14; single dose 10^−5 M; read-out: Growth inhibition (%)
Please provide measured inhibition at 10 µM for the entries that follow.
One number for each entry, in %.

Report inhibition at 10 µM for each item below.
1. O=[N+]([O-])c1cccc(C2NC(Cl)=C(Cl)c3c2sc2c(F)cccc32)c1 (centres unmarked)
2. COc1ccc(C=C2Sc3c(F)cccc3C2=O)c(OC)c1
3. COc1ccc(C2NC(=O)C(C#N)c3c2sc2c(F)cccc32)c(OC)c1 (centres unmarked)
4. O=C1NC(c2cccc([N+](=O)[O-])c2)c2sc3c(F)cccc3c2C1N1CCOCC1 (centres unmarked)
5. COc1ccc(C2NC(=O)C(Cl)c3c2sc2c(F)cccc32)c(OC)c1 (centres unmarked)

OUTPUT:
4.95
-5.61
62.2
-1.23
3.25

For each of the items listed, what is its inhibition at 10 µM?
1. CCN1CCN(C2C(=O)NC(c3cccc([N+](=O)[O-])c3)c3sc4c(F)cccc4c32)CC1 (centres unmarked)
2. N#CC1C(=O)NC(c2cccc([N+](=O)[O-])c2)c2sc3c(F)cccc3c21 (centres unmarked)
3. O=C1C(=Cc2ccccc2[N+](=O)[O-])Sc2c(F)cccc21

OUTPUT:
[-1.65, -8.86, -1.11]

Taken from paper PMC8330742.
